test: Quantitative highthroughput screen to assess conditional lethalithy of P12 Ichikawa cells grown in RPMI1640 with dialyzed fetal bovine serum (RPMI+ds) (AID 1963880); conditions: ATP luminescence, 48 h; P12-Ichikawa viability; series mostly up to 45.8 µM; also: nearly all actives have a fitted effect of over 35% in size
Results filed as inconclusive are left out. Activity calls are given as the source filed them. Calls follow the shape of the dose curve; as a rule, active = well fitted cell-killing curve with a large enough effect; inconclusive = small, poorly fitted or top-dose-only effect; inactive = flat fitted curve, though single readings scatter.
Please reply with one of these outcomes: TRUE for active, FALSE for inactive

{"molecule": "CCCCCCCCCCCCCCCC(=O)OC[C@@H](NC(=O)C(Cl)Cl)[C@H](O)c1ccc([N+](=O)[O-])cc1", "cat": "FALSE"}
{"molecule": "O=C(O)CSCC(=O)NC1CCSC1=O (stereo not given)", "cat": "FALSE"}
{"molecule": "COc1cccc2c(NCc3ccccc3)nc(-n3c(N)nc4ccccc43)nc12", "cat": "TRUE"}
{"molecule": "CCCCc1nc2cc(C=CC(=O)NO)ccc2n1CCN(CC)CC", "cat": "TRUE"}

I would be grateful if you could indicate the recorded call for O=C(O)C[C@H](O)C[C@H](O)C=Cc1c(C2CC2)nc2ccccc2c1-c1ccc(F)cc1 .
TRUE

###

test: Cellular viability qHTS for adrenocortical cancer (ACC) cell line NCI-H295R (AID 1963990); details: CellTiter-Glo ATP luminescence, 48 h; series mostly up to 46.1 µM; also: nearly all actives have a fitted effect of over 60% in size
Inconclusive results are not listed. Calls of active or inactive are those of the source. The call rests on the fitted dose curve; in most records, active means well fitted cell-killing curve with a large enough effect; inconclusive means small, poorly fitted or top-dose-only effect; inactive means flat fitted curve, though single readings scatter.
Please reply with one of these outcomes: true = active, false = inactive

Solved cases (3 shown):
{"molecule": "CN(C)c1nc(N(C)C)nc(N(C)C)n1", "cat": "false"}
{"molecule": "Cn1cc(/C=C/C(=O)c2cccc(F)c2)cc1/C=C/C(=O)NO", "cat": "false"}
{"molecule": "CC1(C)CCC(C)(C)c2cc(NC(=O)c3ccc(C(=O)O)cc3)ccc21", "cat": "false"}

I would be grateful if you could indicate the recorded call for COc1cc(C(=O)N2CCCCCCC2)cc(OC)c1OC .
false

###

test: Quantitative highthroughput screen to assess conditional lethalithy of SEM cells grown in Human Plasma-Like Medium with dialyzed fetal bovine serum (HPLM+ds) (AID 1963882); settings: SEM B-ALL cells in HPLM+ds, CellTiter-Glo viability, 48 h; series mostly up to 45.8 µM; also: nearly all actives have a fitted effect of over 35% in size
Results filed as inconclusive are left out. Active and inactive are the calls of the source. Calls follow the shape of the dose curve; as a rule, active = well fitted cell-killing curve with a large enough effect; inconclusive = small, poorly fitted or top-dose-only effect, or effect the other way; inactive = no such curve, though single readings can be large or run the other way.
Please reply with one of these outcomes: active, inactive

{"compound": "CC(=O)SCC(Cc1ccccc1)C(=O)NCC(=O)OCc1ccccc1 (configuration not stated)", "cat": "inactive"}
{"compound": "CC(=O)O[C@]1(C(C)=O)CC[C@H]2[C@@H]3C=C(Cl)C4=CC(=O)[C@@H]5C[C@H]5[C@]4(C)[C@@H]3CC[C@@]21C", "cat": "inactive"}
{"compound": "CC(=O)OCC(=O)[C@@]1(O)CC[C@H]2[C@@H]3CCC4=CC(=O)CC[C@]4(C)[C@@H]3C(=O)C[C@@]21C", "cat": "inactive"}
{"compound": "CCN1CCN(C(=O)N[C@H](C(=O)N[C@@H]2C(=O)N3C(C(=O)O)=C(CSc4nnnn4C)CS[C@@H]23)c2ccc(O)cc2)C(=O)C1=O", "cat": "inactive"}
{"compound": "FC(F)(F)c1ccc(CNc2ccc(Cc3c[nH]c4ncc(Cl)cc34)cn2)cn1", "cat": "active"}
{"compound": "Cc1cc(C(=O)NOCCO)c(Nc2ccc(I)cc2F)n(C)c1=O", "cat": "active"}

Now consider the entry below.
I would be grateful if you could indicate the recorded call for CN[C@H]1[C@@H](O[C@@H]2[C@H](O[C@@H]3[C@@H](O)[C@@H](O)[C@@H](N=C(N)N)[C@@H](O)[C@@H]3N=C(N)N)O[C@H](C)[C@@]2(O)C=O)O[C@@H](CO)[C@@H](O)[C@H]1O .
inactive

Provenance of the data: PubChem BioAssay (NCATS)
